List of TGI values.
# Tested on: U251 CNS
# TEST METHOD NOTES: NCI tumour cell line growth inhibition, 48 h

Specify reported TGI for the compound shown: NC(=S)N/N=C/c1ccc(N)cn1
> 10 µM

Specify reported TGI for the compound shown: O=c1c2cccc(F)c2sc2c(N3CCNCC3)nc3ccccc3c12
2.96 µM

Specify reported TGI for the compound shown: COc1ccc(-c2nn(-c3cccc(NC(=O)Nc4ccccc4)c3)cc2-c2ccncc2)cc1Cl
4.91 µM

Specify reported TGI for the compound shown: Cc1[nH]n(C(=N)N)c(=O)c1CCO
> 100 µM

Specify reported TGI for the compound shown: CC(=O)Oc1c2c(c(CC=C(C)C)c3c1C(=O)C1=C[C@@H]4CC5C(C)(C)OC(C/C=C(/C)C(=O)O)(C4=O)[C@@]15O3)OC(C)(CCC=C(C)C)C=C2 (stereo partly specified)
0.339 µM

Specify reported TGI for the compound shown: O=c1c(C2=NCCC2)c(-c2ccc[nH]2)[nH]n1-c1ccccc1
> 100 µM

Specify reported TGI for the compound shown: Cc1cc(C)c2c(c1)C1=NCCN1C2(O)c1ccc(Cl)cc1 (stereo unspecified)
32.3 µM

Specify reported TGI for the compound shown: CSc1ccc(OCC2OC2O)cc1 (stereo unspecified)
> 100 µM

New cases:
Specify reported TGI for the compound shown: CCCCCCCCCCCCCCCC(=O)N[C@H](/C=C/[C@H](O)CCCCCCCCCCCCC)CO
> 100 µM

Specify reported TGI for the compound shown: CC(=O)O[C@H]1C=CC(=O)C(C)CC1C (stereo partly specified)
> 100 µM

Specify reported TGI for the compound shown: CN1C(=O)C(C(N)=O)C2CC1(C)Oc1ccccc12 (stereo unspecified)
> 100 µM

====

# System: HCT-15 colon
# TEST METHOD NOTES: NCI tumour cell line growth inhibition, 48 h
List of TGI values.

Consider the reported TGI for these compounds:
Find the measured TGI of c1ccc(N=c2nc(N3CCOCC3)ss2)cc1 with HCT-15 colon as test system.
29 µM

Find the measured TGI of COc1ccc(N2C(=O)c3c(c4[nH]c5ccc(OC)cc5c4c4ccc(C(C)(C)C)cc34)C2=O)cc1 with HCT-15 colon as test system.
> 100 µM

Find the measured TGI of CC(=O)[CH-]C(=O)c1ccccc1.CC(=O)[CH-]C(=O)c1ccccc1.CC[C@H](/C=C/C(C)[C@H]1CCC2[C@@H]3CC=C4C[C@@H]([O-])CC[C@]4(C)C3CC[C@@]21C)C(C)C.CC[O-].[Ti+4] (stereo partly drawn) with HCT-15 colon as test system.
> 100 µM

Find the measured TGI of COC(CC1(/C=C/O[Si](C(C)C)(C(C)C)C(C)C)C(=O)N(COCC[Si](C)(C)C)c2ccccc21)OC (stereo not drawn) with HCT-15 colon as test system.
> 100 µM

Find the measured TGI of COC(=O)C1(C(=O)OC)N=C(C)OC1c1ccccn1 (stereo not drawn) with HCT-15 colon as test system.
> 100 µM

New cases:
Find the measured TGI of COc1cccc(-n2cc(-c3nc(Nc4cc(C)[nH]n4)c4ccccc4n3)nn2)c1 with HCT-15 colon as test system.
9.23 µM

Find the measured TGI of CCN(Cc1ccccc1Cl)c1ccc(CO)c(Cl)c1 with HCT-15 colon as test system.
24 µM

Find the measured TGI of CC(=O)Oc1c2c(c(CC=C(C)C)c3c1C(=O)C1=C[C@@H]4CC5C(C)(C)OC(C/C=C(/C)C(=O)O)(C4=O)[C@@]15O3)OC(C)(CCC=C(C)C)C=C2 (stereo partly drawn) with HCT-15 colon as test system.
0.978 µM

====

List of TGI values.
# System: SNB-75 CNS
# TEST METHOD NOTES: NCI tumour cell line growth inhibition, 48 h

Consider the reported TGI for these compounds:
Find the measured TGI of COc1cccc(C2ON=C(c3ccccc3)N2C23CC4CC(CC(C4)C2)C3)c1 (centres undefined) with SNB-75 CNS as test system.
> 10 µM

Find the measured TGI of CC1=C(C(=O)Nc2ccc3[nH]ncc3c2)C(c2ccc(Cl)c(Cl)c2)CC(=O)N1 (centres undefined) with SNB-75 CNS as test system.
> 19.1 µM

Find the measured TGI of Cc1ccc2c(c1)C1C(CO2)C(c2ccccc2)=NN1c1ccccc1 (centres undefined) with SNB-75 CNS as test system.
> 100 µM

Find the measured TGI of CC(=O)[CH-]C(=O)c1ccccc1.CC(=O)[CH-]C(=O)c1ccccc1.CC[C@H](/C=C/C(C)[C@H]1CCC2[C@@H]3CC=C4C[C@@H]([O-])CC[C@]4(C)C3CC[C@@]21C)C(C)C.CC[O-].[Ti+4] (some centres undefined) with SNB-75 CNS as test system.
> 100 µM

Find the measured TGI of O=C(CC(C(=O)c1cccs1)c1cccs1)c1ccccc1Cl (centres undefined) with SNB-75 CNS as test system.
> 100 µM

Find the measured TGI of COc1cccc2c3ccccc3c3nc[nH]c3c12 with SNB-75 CNS as test system.
> 100 µM

Find the measured TGI of C[C@]12CCC[C@H](O)[C@H]1C[C@H](CO)CC2 with SNB-75 CNS as test system.
> 100 µM

Find the measured TGI of c1cc(CSSCc2ccncc2)ccn1 with SNB-75 CNS as test system.
> 100 µM

New cases:
Find the measured TGI of CC(=O)Oc1c2c(c(CC=C(C)C)c3c1C(=O)C1=C[C@@H]4CC5C(C)(C)OC(C/C=C(/C)C(=O)O)(C4=O)[C@@]15O3)OC(C)(CCC=C(C)C)C=C2 (some centres undefined) with SNB-75 CNS as test system.
1.39 µM

Find the measured TGI of Cc1cc2c(C(C)C)c(O)c(O)c(C=NCCO)c2c(O)c1-c1c(C)cc2c(C(C)C)c(O)c(O)c(C=NCCO)c2c1O with SNB-75 CNS as test system.
9.13 µM

Find the measured TGI of c1cc2nnc1SCCCSc1ccc(nn1)SCCCSc1ccc(nn1)SCCCS2 with SNB-75 CNS as test system.
83.4 µM

Find the measured TGI of O=C1C(=O)c2ccccc2C(O)=C1CCCc1ccc(C2CCCC2)cc1 with SNB-75 CNS as test system.
38.7 µM

Find the measured TGI of CC(=O)OC1CC2(C)OC(Cc3ccccc32)O1 (centres undefined) with SNB-75 CNS as test system.
> 100 µM

Find the measured TGI of CCCCCCC/C=C/[C@H]1O[C@]2(O)C(=O)C=C3C[C@@H](O[C@@H]4O[C@H](CO)[C@@H](O)C(O)[C@@H]4O)C[C@@H]3[C@H]2C=C1C (some centres undefined) with SNB-75 CNS as test system.
5.93 µM

Find the measured TGI of O=C(c1ccco1)c1c(C(F)(F)F)nc2ccc(C(F)(F)F)cc2[n+]1[O-] with SNB-75 CNS as test system.
36.4 µM

Find the measured TGI of Fc1ccc(-c2nn3c(-c4cc(C(F)(F)F)cc(C(F)(F)F)c4)nnc3s2)cc1 with SNB-75 CNS as test system.
2.36 µM

Find the measured TGI of CC(C)(C)OC(=O)NCCC(=O)NC1(c2cc3ccccc3s2)CCCCC1 with SNB-75 CNS as test system.
38.7 µM

Find the measured TGI of COC1(OC)N=C(N)C2(C#N)C3(C(=O)N(C(C)C)N=C3C)C12C#N (centres undefined) with SNB-75 CNS as test system.
> 100 µM

Find the measured TGI of O=c1c(C2=NCCC2)c(-c2ccc[nH]2)[nH]n1-c1ccccc1 with SNB-75 CNS as test system.
> 100 µM

====

List of TGI values.
# Test system: SK-MEL-5 melanoma
# TEST METHOD NOTES: NCI tumour cell line growth inhibition, 48 h

Consider the reported TGI for these compounds:
Specify reported TGI for the compound shown: N#Cc1cc([N+](=O)[O-])ccc1NC(=O)C(F)(F)F
> 100 µM

Specify reported TGI for the compound shown: COC(=O)C1=Cc2cc(OC)c(OC)cc2[C@H](c2ccc(OC)c(OC)c2)C1C(=O)OC (stereo not given in full)
> 100 µM

Specify reported TGI for the compound shown: Nc1c(C(=O)N/N=C/c2ccc(Cl)cc2)sc(=S)n1-c1ccccc1
> 100 µM

Specify reported TGI for the compound shown: CO/C(=C/C(=O)C(Cl)(Cl)Cl)CC/C(=C\C(=O)C(Cl)(Cl)Cl)OC
> 100 µM

Specify reported TGI for the compound shown: CCC12CCCNC1c1c(n(C)c3ccccc13)C(C(=O)OC)C2 (stereo not given)
82.5 µM

New cases:
Specify reported TGI for the compound shown: NC(=O)C(=CNC(=S)Nc1ccc(Cl)c(Cl)c1)C(N)=O
> 100 µM

Specify reported TGI for the compound shown: NNC1=N/C(=C\c2ccco2)C(=O)N1
> 100 µM

Specify reported TGI for the compound shown: COc1ccc2c(Cc3c4ccccc4cc4ccccc34)cncc2c1O
3.05 µM

Data origin, for the record: PubChem BioAssay (NCI)
